Assay: Encapsulation rate of LNP RNA (Qubit RNA HS Assay kit)
Type: physicochemical
Details: LNPs, Formulation method 2
From the text: […] Detection of encapsulation rate: the concentration of LNP RNA was detected by Qubit® RNA HS Assay kit. […]
The compounds listed here are annotated with their Encapsulation rate.
measured-property: Encapsulation rate

INSERT INTO results (given_smiles, experimental_value) VALUES
  ('CCCCCCCCCCCCCCCCSc1nc(NCC2CCN(C)CC2)nc(SCCCCCCCCCC)n1', '99.2%'),
  ('CCCCCCCCCCCCCCCCCCSc1nc(NCCN2CCCC2)nc(SCCCCCCC)n1', '99.3%'),
  ('CCCCCCCCCCCCCNc1nc(NCCCN(C)C)nc(SCCCCCCCCCCCC)n1', '99.2%'),
  ('CCCCCCCCCCCCCCCCSc1nc(NCCCN2CCN(C)CC2)nc(SCCCCCCCC)n1', '99.4%'),
  ('CCCCCCCCCCCCCCCCSc1nc(NCCCCCCC)nc(NCCCN2CCN(C)CC2)n1', '99.2%'),
  ('CCCCCCCC/C=C\CCCCCCCCSc1nc(OCCN2CCCC2)nc(SCCCCCCCCC)n1', '99.2%'),
  ('CCCCCCCCCCCCCCCCSc1nc(NCCCCCCCC)nc(NCC2CCN(C)CC2)n1', '98.6%'),
  ('CCCCCCCC/C=C\CCCCCCCCSc1nc(OCC2CCN(C)CC2)nc(SCCCCCCCCC)n1', '99.0%');

* * *

system: Hela cells; experiment: Transfection of Hela cell line, mRNA vectors; format: cell-based; settings: 50 ng EGFP mRNA per well
Rule: measured Absolute mRNA transfection efficiency in Hela cells below 20% gets class 1; anything equal to or greater than 20% gets class 0.

INSERT INTO measurements (compound, answer_label) VALUES
  ('CCCCCCCCCNc1nc(NCCN2CCCC2)nc(SCCCCCCCCC)n1 [Compound S9N9D3]', 'class 0'),
  ('CCCCCCCCCCCSc1nc(NCC2CCN(C)CC2)nc(SCCCCCCCC)n1 [Compound S8S11D10]', 'class 0'),
  ('CCCCCCCCCCCSc1nc(NCCCCCCCC)nc(NCCCN2CCOCC2)n1 [Compound S11N8D8]', 'class 1'),
  ('CCCCCCCCCNc1nc(NCCCN2CCN(C)CC2)nc(SCCCCCCCCC)n1 [Compound S9N9D9]', 'class 0'),
  ('CCCCCCCCCCCNc1nc(NCCN2CCCC2)nc(SCCCCCCCCC)n1 [Compound S9N11D3]', 'class 0'),
  ('CCCCCCCCCCCCNc1nc(NCCN2CCCC2)nc(SCCCCCCCCC)n1 [Compound S9N12D3]', 'class 0'),
  ('CCCCCCCCCCCCSc1nc(NCCN2CCCC2)nc(SCCCCCCCCC)n1 [Compound S9S12D3]', 'class 1');

* * *

Test system: HEK293 cells
Assay: Preliminary screening as DNA vectors, GFP transfection of HEK293 cells
Format: cell-based
Details: HEK293 cells; lipid/DOPE liposome with 75 ng plasmid DNA (psin-EGFP-IRES-Puro); number of cells expressing GFP divided by total number of nuclei (Hoechst)
Procedure: Cell line: HEK293 cells (ATCC CRL-1573™) Medium: DMEM supplemented with 10% fetal bovine serum (Invitrogen) Mode of screening: cell transfection on 96-well plates Detection (readout): percentage of the number of GFP fluorescent cells relative to the total number of cells (the total number of cells was measured using nucleus dye Hoechst—see FIG. 2). […] 4. […] The absolute transfection efficiency was calculated as follows: […]
Absolute DNA transfection efficiency in HEK293 cells by entry:
measured-property: Absolute DNA transfection efficiency in HEK293 cells (%)

INSERT INTO assay_data (molecule, target_system, uom, experimental_value) VALUES
  ('CCCCCCCCCCCCCCCSc1nc(NCCN(C)C)nc(SCCCCCCCC)n1 [Compound S8S15D1]', 'HEK293 cells', '%', 8.1),
  ('CCCCCCCCCCCCNc1nc(NCCCCCCC)nc(NCCCN2CCN(C)CC2)n1 [Compound N7N12D9]', 'HEK293 cells', '%', 0.1),
  ('CCCCCCCCCCCNc1nc(NCCCCCCC)nc(NCCN(CC)CC)n1 [Compound N7N11D7]', 'HEK293 cells', '%', 0.0),
  ('CCCCCCCNc1nc(NCCCCCC)nc(NCCN2CCOCC2)n1 [Compound N6N7D2]', 'HEK293 cells', '%', 0.0),
  ('CCCCCCCCCNc1nc(NCCCCCCCCC)nc(NCCN2CCOCC2)n1 [Compound N9N9D2]', 'HEK293 cells', '%', 0.0),
  ('CCCCCCCCCSc1nc(NCCN(CC)CC)nc(SCCCCCCCCC)n1 [Compound S9S9D7]', 'HEK293 cells', '%', 32.6),
  ('CCCCCCCCCCCCCCCCCCSc1nc(NCCN(CC)CC)nc(SCCCCCCCCCC)n1 [Compound S10S18D7]', 'HEK293 cells', '%', 9.2),
  ('CCCCCCCCCCCCCCCCNc1nc(NCCCCCCCC)nc(NCCCN2CCOCC2)n1 [Compound N8N16D8]', 'HEK293 cells', '%', 2.3);
